# Test system: MCF7
# protocol description: Antiproliferative activity against human MCF7 cells by MTS assay
# Assay type: functional, cell-based
endpoint name: IC50

Take a look at these entries with their results.
line notation	IC50
C(Cn1cnc2ccccc21)=C(c1cc2ccccc2o1)c1cc2ccccc2o1	> 20 µM
COc1ccc(C(=O)C[n+]2cn(CC=C(c3cc4ccccc4o3)c3cc4ccccc4o3)c3cc(C)c(C)cc32)cc1	7.97 µM
Cc1cc2c(cc1C)[n+](CC(=O)c1ccc(-c3ccccc3)cc1)cn2CC=C(c1cc2ccccc2o1)c1cc2ccccc2o1	8.67 µM
Cc1n(CC=C(c2cc3ccccc3o2)c2cc3ccccc3o2)c2ccccc2[n+]1CC(=O)c1ccc(-c2ccccc2)cc1	1.23 µM
COc1ccc(C(=O)C[n+]2cn(CC=C(c3cc4ccccc4o3)c3cc4ccccc4o3)c3ccccc32)cc1	1.02 µM

[ask] Param item = "Cc1n(CC=C(c2cc3ccccc3o2)c2cc3ccccc3o2)c2ccccc2[n+]1CC(=O)c1ccc(Br)cc1" ; retrieve measured IC50.
[reply] 1.72 µM

[ask] Param item = "O=C(C[n+]1cn(CC=C(c2cc3ccccc3o2)c2cc3ccccc3o2)c2ccccc21)c1ccc(Br)cc1" ; retrieve measured IC50.
[reply] 1.63 µM

====

# System: SW480
# protocol description: Antiproliferative activity against human SW480 cells by MTS assay
# Assay type: functional, cell-based
Measured IC50 accompanies every entry in the list below.
A number alone suffices; assume µM.

line notation	unit of measure	IC50
Cc1n(CC=C(c2cc3ccccc3o2)c2cc3ccccc3o2)c2ccccc2[n+]1CC(=O)c1ccccc1	µM	0.79

[ask] Param item = "O=C(C[n+]1cn(CC=C(c2cc3ccccc3o2)c2cc3ccccc3o2)c2ccccc21)c1ccc(-c2ccccc2)cc1" ; retrieve measured IC50.
[reply] 5.94

[ask] Param item = "O=C(C[n+]1cn(CC=C(c2cc3ccccc3o2)c2cc3ccccc3o2)c2ccccc21)c1ccccc1" ; retrieve measured IC50.
[reply] 1.92

[ask] Param item = "Cc1n(CC=C(c2cc3ccccc3o2)c2cc3ccccc3o2)c2ccccc2[n+]1CC(=O)c1ccc(-c2ccccc2)cc1" ; retrieve measured IC50.
[reply] 1.48

[ask] Param item = "O=C(C[n+]1cn(CC=C(c2cc3ccccc3o2)c2cc3ccccc3o2)c2ccccc21)c1ccc2ccccc2c1" ; retrieve measured IC50.
[reply] 1.77

[ask] Param item = "O=C(C[n+]1ccn(CC=C(c2cc3ccccc3o2)c2cc3ccccc3o2)c1)c1ccc(-c2ccccc2)cc1" ; retrieve measured IC50.
[reply] 7.2

[ask] Param item = "O=C(C[n+]1ccn(CC=C(c2cc3ccccc3o2)c2cc3ccccc3o2)c1)c1ccc(Br)cc1" ; retrieve measured IC50.
[reply] 6.17

[ask] Param item = "Cc1cc2c(cc1C)[n+](CC(=O)c1ccccc1)cn2CC=C(c1cc2ccccc2o1)c1cc2ccccc2o1" ; retrieve measured IC50.
[reply] 4.3

[ask] Param item = "Cc1cc2c(cc1C)[n+](CC(=O)c1ccc(-c3ccccc3)cc1)cn2CC=C(c1cc2ccccc2o1)c1cc2ccccc2o1" ; retrieve measured IC50.
[reply] 6.42

[ask] Param item = "O=C(C[n+]1ccn(CC=C(c2cc3ccccc3o2)c2cc3ccccc3o2)c1)c1ccccc1" ; retrieve measured IC50.
[reply] 6.44

[ask] Param item = "Cc1cc2c(cc1C)[n+](CC(=O)c1ccc3ccccc3c1)cn2CC=C(c1cc2ccccc2o1)c1cc2ccccc2o1" ; retrieve measured IC50.
[reply] 2.36

[ask] Param item = "COc1ccc(C(=O)C[n+]2cn(CC=C(c3cc4ccccc4o3)c3cc4ccccc4o3)c3ccccc32)cc1" ; retrieve measured IC50.
[reply] 1.47

[ask] Param item = "Cc1n(CC=C(c2cc3ccccc3o2)c2cc3ccccc3o2)c2ccccc2[n+]1CC(=O)c1ccc(Br)cc1" ; retrieve measured IC50.
[reply] 0.8

[ask] Param item = "O=C(C[n+]1cn(CC=C(c2cc3ccccc3o2)c2cc3ccccc3o2)c2ccccc21)c1ccc(Br)cc1" ; retrieve measured IC50.
[reply] 1.43

[ask] Param item = "COc1ccc(C(=O)C[n+]2cn(CC=C(c3cc4ccccc4o3)c3cc4ccccc4o3)c3cc(C)c(C)cc32)cc1" ; retrieve measured IC50.
[reply] 5.8
